# TGT: Neutrophil elastase (Homo sapiens)
# TEST_DETAILS: Bimolecular rate constant for the inhibition of human leukocyte elastase
Collected Bimolecular inhibition rate constant (kobs/[I]) values appear next to each entry.
Expressed in M⁻¹ s⁻¹, but write only the number.

Use the examples below as a reference point.
Request - read-out Bimolecular inhibition rate constant (kobs/[I]) | tested on Neutrophil elastase (Homo sapiens) | compound O=C1NCC(Cc2ccccc2)C(=O)N1OS(=O)(=O)/C=C/c1ccccc1 (centres undefined)
480

Follow-up entry: CS(=O)(=O)ON1C(=O)CC(Cc2ccccc2)NC1=O (centres undefined)
800

Follow-up entry: CS(=O)(=O)ON1C(=O)NCC(Cc2ccccc2)C1=O (centres undefined)
3310

Now let's try a different one.
Request - read-out Bimolecular inhibition rate constant (kobs/[I]) | tested on Neutrophil elastase (Homo sapiens) | compound O=C1CC(Cc2ccccc2)NC(=O)N1OS(=O)(=O)/C=C/c1ccccc1 (centres undefined)
1980
